assay_summary: Clearance in rat at 1 mg/kg, iv
Format: ADME, organism-based
Set-up: dose 1 mg/kg, route intravenous
measurement_setup: in vivo
metric_name: clearance (mL/min/kg)
# output: bare number, implied unit mL/min/kg

// returns reported clearance for input Cc1nc2ccccc2n1C1C[C@H]2CC[C@@H](C1)N2CC[C@H](NC(=O)C1CCSCC1)c1cccc(F)c1 (stereo partly specified)
60

====

assay_summary: Volume of distribution in rat at 1 mg/kg, iv and 2 mg/kg, po
Assay type: ADME, organism-based
measurement_setup: in vivo
metric_name: Vd (L/kg)
# output: bare number, implied unit L/kg

// returns reported Vd for input Cc1nc2ccccc2n1C1C[C@H]2CC[C@@H](C1)N2CC[C@H](NC(=O)C1CC[S+]([O-])CC1)c1cccc(F)c1 (stereo partly specified)
23

====

assay_summary: Clearance in rat at 1 mg/kg, iv and 2 mg/kg, po
Type: ADME, organism-based
measurement_setup: in vivo
metric_name: clearance (mL/min/kg)
# output: bare number, implied unit mL/min/kg

// returns reported clearance for input Cc1nc2ccccc2n1C1C[C@H]2CC[C@@H](C1)N2CC[C@H](NC(=O)C1CC[S+]([O-])CC1)c1cccc(F)c1 (stereo partly specified)
104

====

Test system: Rattus norvegicus
assay_summary: fAUC in rat at 3 mg/kg, po
Type: ADME, organism-based
Set-up: dose 3 mg/kg, route oral
measurement_setup: in vivo
metric_name: fAUC (ng·h/mL)
# output: bare number, implied unit ng·h/mL

[
  {
    "compound": "Cc1nc2ccccc2n1C1C[C@H]2CC[C@@H](C1)N2CC[C@H](NC(=O)C1CCSCC1)c1cccc(F)c1 (some centres undefined)",
    "subject_of_test": "Rattus norvegicus",
    "fAUC, ng·h/mL": 0.25
  }
]

// returns reported fAUC for input Cc1nc2ccccc2n1C1C[C@H]2CC[C@@H](C1)N2CC[C@H](NC(=O)[C@H]1CC[S@@+]([O-])CC1)c1cccc(F)c1 (some centres undefined)
1.7

// returns reported fAUC for input Cc1nc2ccccc2n1C1C[C@H]2CC[C@@H](C1)N2CC[C@H](NC(=O)[C@H]1CC[S@+]([O-])CC1)c1cccc(F)c1 (some centres undefined)
0.3

====

assay_summary: Oral bioavailability in rat at 1 mg/kg, iv and 2 mg/kg, po
Assay type: ADME, organism-based
measurement_setup: in vivo
metric_name: bioavailability

// returns reported bioavailability for input Cc1nc2ccccc2n1C1C[C@H]2CC[C@@H](C1)N2CC[C@H](NC(=O)C1CC[S+]([O-])CC1)c1cccc(F)c1 (stereo partly specified)
< 1%

====

pIC50 for assorted molecules
assay_summary: Inhibition of HIV1 gp160 by cell-cell fusion inhibition assay
Design: species or system Human immunodeficiency virus 1
Note on units: pIC50 is unitless, being -log10 of a concentration expressed in mol/L.

Below, 2 molecules whose answers are already recorded.
[
  {
    "molecule": "Cc1nc2cc(F)ccc2n1C1C[C@H]2CC[C@@H](C1)N2CC[C@H](NC(=O)c1ccc(S(C)(=O)=O)cc1)c1cccc(F)c1 (stereo partly drawn)",
    "pIC50": 8.10
  },
  {
    "molecule": "Cc1nc2ccccc2n1C1C[C@H]2CC[C@@H](C1)N2CC[C@H](NC(=O)c1ccc[n+]([O-])c1)c1cccc(F)c1 (stereo partly drawn)",
    "pIC50": 8.30
  }
]

--- query ---
// returns reported pIC50 for input Cc1nc2ccccc2n1C1C[C@H]2CC[C@@H](C1)N2CC[C@H](NC(=O)c1ccc(S(C)(=O)=O)cc1)c1cccc(F)c1 (stereo partly drawn)
7.40

====

log10 microsomal CLint at 1 µM for assorted molecules
assay_summary: Metabolic stability in human liver microsomes assessed as intrinsic clearance at 1 uM
Format: ADME, Microsome
All values: log10 microsomal CLint at 1 µM [µL/min/mg].

Below, 5 molecules whose answers are already recorded.
[
  {
    "molecule": "Cc1nc2ccncc2n1C1C[C@H]2CC[C@@H](C1)N2CCC(NC(=O)C1CC[S+]([O-])CC1)c1cccc(F)c1 (some centres not stated)",
    "log10 microsomal CLint at 1 µM": 1.70
  },
  {
    "molecule": "Cc1nc2ccccc2n1C1C[C@H]2CC[C@@H](C1)N2CC[C@H](NC(=O)[C@H]1CC[S@+]([O-])CC1)c1cccc(F)c1 (some centres not stated)",
    "log10 microsomal CLint at 1 µM": 2.05
  },
  {
    "molecule": "CCc1nc2ccccc2n1C1C[C@H]2CC[C@@H](C1)N2CC[C@H](NC(=O)C1CCS(=O)(=O)CC1)c1cccc(F)c1 (some centres not stated)",
    "log10 microsomal CLint at 1 µM": 1.40
  },
  {
    "molecule": "CCc1nc2ccccc2n1C1C[C@H]2CC[C@@H](C1)N2CCC(NC(=O)C1CC[S+]([O-])CC1)c1cccc(F)c1 (some centres not stated)",
    "log10 microsomal CLint at 1 µM": 1.95
  },
  {
    "molecule": "Cc1nc2cc(F)ccc2n1C1C[C@H]2CC[C@@H](C1)N2CCC(NC(=O)C1CC[S+]([O-])CC1)c1cccc(F)c1 (some centres not stated)",
    "log10 microsomal CLint at 1 µM": 1.97
  }
]

--- query ---
// returns reported log10 microsomal CLint at 1 µM for input Cc1nc2ccccc2n1C1C[C@H]2CC[C@@H](C1)N2CC[C@H](NC(=O)[C@H]1CC[S@@+]([O-])CC1)c1cccc(F)c1 (some centres not stated)
1.56

====

assay_summary: Metabolic stability in human liver microsomes assessed as intrinsic clearance at 1 uM
Assay type: ADME, Microsome
metric_name: microsomal CLint at 1 µM (µL/min/mg)
# output: bare number, implied unit µL/min/mg

Below, 3 compounds whose answers are already recorded.
[
  {
    "compound": "Cc1nc2ccccc2n1C1C[C@H]2CC[C@@H](C1)N2CC[C@H](NC(=O)C1CC[S+]([O-])CC1)c1cccc(F)c1 (stereo partly specified)",
    "scale_unit": "µL/min/mg",
    "microsomal CLint at 1 µM": 38
  },
  {
    "compound": "Cc1nc2ccc(F)cc2n1C1C[C@H]2CC[C@@H](C1)N2CC[C@H](NC(=O)C1CCS(=O)(=O)CC1)c1cccc(F)c1 (stereo partly specified)",
    "scale_unit": "µL/min/mg",
    "microsomal CLint at 1 µM": 10
  },
  {
    "compound": "Cc1nc2cc(F)ccc2n1C1C[C@H]2CC[C@@H](C1)N2CC[C@H](NC(=O)C1CCS(=O)(=O)CC1)c1cccc(F)c1 (stereo partly specified)",
    "scale_unit": "µL/min/mg",
    "microsomal CLint at 1 µM": 14
  }
]

--- query ---
// returns reported microsomal CLint at 1 µM for input Cc1nc2ccccc2n1C1C[C@H]2CC[C@@H](C1)N2CC[C@H](NC(=O)C1CCS(=O)(=O)CC1)c1cccc(F)c1 (stereo partly specified)
23
